B1: RILPL2-GFP WT, full length [human] / HA-Rab8a in MLi-2 treated cells (LRRK2 inhibited) [Homo sapiens (Human).] (parent)
chain 1: MEEPPVREEEEEEGEEDEERDEVGPEGALGKSPFQLTAEDVYDISYLLGRELMALGSDPRVTQLQFKVVRVLEMLEALVNEGSLALEELKMERDHLRKEVEGLRRQSPPASGEVNLGPNKMVVDLTDPNRPRFTLQELRDVLQERNKLKSQLLVVQEELQCYKSGLIPPREGPGGRREKDAVVTSAKNAGRNKEEKTIIKKLFFFRSGKQT
chain 2: MAKTYDYLFKLLLIGDSGVGKTCVLFRFSEDAFNSTFISTIGIDFKIRTIELDGKRIKLQIWDTAGQERFRTITTAYYRGAMGIMLVYDITNEKSFDNIRNWIRNIEEHASADVEKMILGNKCDVNDKRQVSKERGEKLALDYGIKFMETSAKANINVENAFFTLARDIKAKMDKKLEGNSPQGSNQGVKITPDQQKRSSFFRC

# Variants of: B1
# METHOD_DESCRIPTION: co-immunoprecipitation (GFP binder Sepharose) with LI-COR immunoblot quantification
# CONDITION_PARAMETERS: with HA-Rab8a in MLi-2 treated cells (LRRK2 inhibited) [Homo sapiens (Human).]; HEK293 cells, Flag-LRRK2[Y1699C] + HA-Rab8a co-expressed; 500 nM MLi-2 for 90 min; parent: 0.11; read off a plot
ratio to parent for assorted variants
MEASUREMENT_KIND: ratio to parent

1. chain 1 T126A | 0.12
2. chain 1 D127A | 0.13
3. chain 1 D124N | 0.09
4. chain 1 P128A | 0.11
5. chain 1 D127N | 0.12
6. chain 1 D124A | 0.06

This collection of values is drawn from paper PMC8204342.
